System: Trypanosoma cruzi
Assay: WHO-TDR: Chagas disease
Format: functional, organism-based, Homo sapiens
Settings: MRC5

| molecule | studySystem | relationSign | IC50 (µg/mL) |
| --- | --- | --- | --- |
| CCN(CC)c1cc(C)nc(Nc2ccc(NS(=O)(=O)c3ccc(C)cc3C)cc2)n1 | Trypanosoma cruzi | = | 0.324 |
| Cc1[nH]c2ccccc2c1SCCNC(=O)c1c(-c2ccccc2Cl)noc1C | Trypanosoma cruzi | > | 12.8 |
| O=C(C1CCCC1)N1CCc2ccc(NS(=O)(=O)c3ccc4c(c3)OCCO4)cc21 | Trypanosoma cruzi | > | 12.9 |
| O=C(NCCc1csc(-c2ccccc2)n1)C1CCCC1 | Trypanosoma cruzi | = | 0.345 |
| COc1ccc(Cl)c2sc(N(CCCn3ccnc3)C(=O)c3cccc(F)c3)nc12 | Trypanosoma cruzi | = | 3.68 |
| COc1cccc(C2C(S(=O)(=O)c3ccc(C)cc3)=C(O)C(=O)N2c2ccc(C)cc2)c1 (stereo not drawn) | Trypanosoma cruzi | > | 13.5 |
| CCSc1ccccc1C(=O)Nc1nnc(Cc2cccs2)o1 | Trypanosoma cruzi | = | 3.48 |
| COc1nn(C)cc1-c1nnc(SCC(=O)N2CCC(Cc3ccccc3)CC2)n1C | Trypanosoma cruzi | = | 3.01 |
| CC(C)S(=O)(=O)c1ccc(C(=O)Nc2ccccc2-c2nc3ccccc3[nH]2)cc1 | Trypanosoma cruzi | > | 12.6 |
| COc1cccc(OCC(=O)N2CCN(c3nccn3-c3cccc(Cl)c3)CC2)c1 | Trypanosoma cruzi | = | 9.15 |
| CCSc1nnc(NC(=O)c2cc(=O)c(OCc3ccc(F)cc3)cn2C)s1 | Trypanosoma cruzi | > | 12.6 |
| COc1ccc(-c2cccc(NC(=O)Nc3ccc(C)cc3)c2)nn1 | Trypanosoma cruzi | = | 7.36 |
| O=C(c1ccc(F)cc1F)N1CCN(c2ccc(-c3cccnc3)nn2)CC1 | Trypanosoma cruzi | > | 11.4 |
| O=S(=O)(NCCNc1ccc(Nc2ccccn2)nn1)c1ccccc1C(F)(F)F | Trypanosoma cruzi | > | 13.2 |
| CC1CC(C)CN(S(=O)(=O)CCCOc2ccc3c(c2)OCO3)C1 (stereo not drawn) | Trypanosoma cruzi | > | 10.7 |
| CCc1cc(=O)[nH]c(-n2nc(C)cc2NC(=O)Cc2cccs2)n1 | Trypanosoma cruzi | = | 0.276 |
| O=C(CSc1nnc(NC(=O)COc2ccc(Cl)cc2)s1)NCc1ccc2c(c1)OCO2 | Trypanosoma cruzi | = | 0.433 |
| O=S(=O)(CCCOc1ccc(F)cc1)N1CCc2ccccc21 | Trypanosoma cruzi | = | 3.09 |
| Cc1ccc(-n2ccnc2N2CCN(C(=O)c3ccccc3SC(F)F)CC2)cc1 | Trypanosoma cruzi | = | 0.531 |
| C=CCN1C(=O)C(C)(C)COc2cc(NS(=O)(=O)C3CCCCC3)ccc21 | Trypanosoma cruzi | = | 8.42 |
| O=C(CSc1ccc(NC(=O)c2cccs2)nn1)c1ccc(Cl)cc1 | Trypanosoma cruzi | > | 11.7 |
| O=C(c1ccc(F)c(F)c1)N1CCN(c2nccn2-c2cccc(Cl)c2)CC1 | Trypanosoma cruzi | = | 11.4 |
| COc1ccc(-c2nnc(NC(=O)c3cccc(C(F)(F)F)c3)o2)cc1 | Trypanosoma cruzi | = | 0.844 |
| O=S(=O)(Nc1ccc(-c2ccc3nnc(-c4ccccn4)n3n2)cc1)c1ccccc1F | Trypanosoma cruzi | > | 13.4 |
| c1ccc2c(CCNc3ncnc4[nH]ncc34)c[nH]c2c1 | Trypanosoma cruzi | = | 2.44 |
| CCN(CC)c1cc(C)nc(Nc2ccc(NC(=O)c3cc4ccccc4oc3=O)cc2)n1 | Trypanosoma cruzi | > | 13.3 |
| Cc1ccccc1OCC(=O)NCCS(=O)(=O)N1CCN(Cc2ccccc2)CC1 | Trypanosoma cruzi | > | 14 |
| Cc1ccc(C)c(-c2csc(NC(=O)CCCS(=O)(=O)c3ccc(F)cc3)n2)c1 | Trypanosoma cruzi | = | 0.588 |
| COc1ccccc1CCNC(=O)CCc1csc(NC(=O)c2cccs2)n1 | Trypanosoma cruzi | = | 3.8 |
| CCOC(=O)N1CCN(C(=O)Nc2nc(CC(=O)Nc3ccc(F)c(F)c3)cs2)CC1 | Trypanosoma cruzi | > | 13.6 |
| O=C(Nc1nnc(C2COc3ccccc3O2)o1)c1ccc(F)cc1 (stereo not drawn) | Trypanosoma cruzi | = | 0.289 |
| Cc1ccc(C(=O)Nc2nnc(Cc3cccs3)o2)cc1C | Trypanosoma cruzi | = | 3.01 |
| O=C(Nc1ccc2c(c1)N(C(=O)c1cccs1)CC2)c1cc2ccccc2oc1=O | Trypanosoma cruzi | > | 12.5 |
| O=C(c1ccccc1)N1CCN(c2ccc(Nc3ccccn3)nn2)CC1 | Trypanosoma cruzi | > | 10.8 |
| Cc1cc(C(=O)Nc2nnc(-c3ccc(Br)s3)o2)nn1C | Trypanosoma cruzi | > | 11 |
| COc1cccc(-c2cc(CC(=O)Nc3nc(C)cs3)no2)c1 | Trypanosoma cruzi | > | 9.88 |
| CS(=O)(=O)c1ccc2nc(Nc3nc4c(F)cccc4s3)sc2c1 | Trypanosoma cruzi | > | 11.4 |
| Cc1cc(-c2nnc(NC(=O)c3nc4ccccc4s3)o2)nn1C | Trypanosoma cruzi | = | 3.72 |
| CCCc1cc(=O)n(CC(=O)Nc2ccc(C)cc2)c(-n2nc(C)cc2C)n1 | Trypanosoma cruzi | = | 0.764 |
| CC1(C)COc2ccc(NS(=O)(=O)c3cccc4ccccc34)cc2NC1=O | Trypanosoma cruzi | > | 11.9 |
| O=S(=O)(c1ccc(Cl)s1)N1CCN(c2ccc(-c3ccccn3)nn2)CC1 | Trypanosoma cruzi | = | 0.438 |
| O=C(c1ccccc1F)N1CCN(c2ccc(-c3ccccn3)nn2)CC1 | Trypanosoma cruzi | = | 0.375 |
| COc1ccc(S(=O)(=O)NCC(c2cccnc2)N2CCN(Cc3ccccc3)CC2)cc1C (stereo not drawn) | Trypanosoma cruzi | = | 0.835 |

###

// values below are reported % Inhibition
Tested on: Brugia malayi
Assay: WHO-TDR: Lymphatic Filariasis
Type: functional
Design: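 tested at 10 µM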

| compound | % Inhibition / % |
| --- | --- |
| CN(C1CC1)S(=O)(=O)c1ccc(C(=O)Nc2nnc(-c3ccc(Br)s3)o2)cc1 | 0 |
| COc1cc(C(=O)Nc2ccc3c(c2)N(C(=O)c2ccco2)CC3)cc(OC)c1OC | 0 |
| CC(C)CC(=O)N1CCN(c2ccc(-c3ccccn3)nn2)CC1 | 33.33 |
| Cc1ccc(S(=O)(=O)N2CCC(C(=O)Nc3c(C(N)=O)oc4ccccc34)CC2)cc1 | 0 |
| COc1ccc(S(=O)(=O)NCC(c2cccc3ccccc23)N(C)C)cc1C (stereo not given) | 0 |

###

# IC50 listing for each entry below
Tested on: Trypanosoma cruzi
Test: WHO-TDR: Chagas disease
Format: functional, organism-based, Homo sapiens
Settings: MRC5

| compound | relationSign | IC50 [µg/mL] |
| --- | --- | --- |
| CCN(CC)CCSc1ccc(-c2sc(-c3ccc(F)cc3)nc2C)nn1 | = | 3.25 |
| Cc1cc(=O)[nH]c(-n2nc(C)cc2NC(=O)c2ccc(S(=O)(=O)N3CCCCC3)cc2)n1 | = | 0.418 |
| CCOc1ccc(C(=O)Nc2ccc(Nc3nc(C)cc(N(CC)CC)n3)cc2)cc1OCC | = | 0.428 |
| O=C(Nc1ccc(SCC(=O)N2CCc3ccccc32)nn1)c1ccccc1F | > | 12.3 |
| O=C(Cc1ccc(F)cc1)Nc1nc(-c2ccccn2)cs1 | = | 0.334 |
| CCN(CC)c1cc(C)nc(Nc2ccc(NC(=O)c3c(F)cccc3F)cc2)n1 | = | 0.26 |
| O=C(CCS(=O)(=O)c1ccccc1)N(CCCN1CCOCC1)c1nc2ccccc2s1 | = | 8.52 |
| COc1ccc(C)c2sc(N(CCCN(C)C)C(=O)c3ccccc3SC)nc12 | = | 5.29 |
| CN(CC1CCCO1)S(=O)(=O)c1ccc(C(=O)Nc2nc3c(s2)CSc2ccccc2-3)cc1 (stereo not given) | = | 0.521 |
| CCc1ccccc1-n1c(C)cn2c3c(=O)n(CC(C)C)c(=O)n(C)c3nc12 | > | 11.4 |

###

Test system: Plasmodium falciparum K1
Assay: WHO-TDR: Malaria
Assay type: functional, organism-based, Homo sapiens
Conditions: Erythrocyte

| compound | IC50 |
| --- | --- |
| Cc1nc2sc(C)c(C)n2c(=O)c1NC(=O)CC(c1ccccc1)c1ccccc1 | > 12.5 µg/mL |
| CC1CCc2c(sc(Nc3nc4c(F)cccc4s3)c2C(N)=O)C1 (configuration not stated) | 2.69 µg/mL |
| CC(C)CN1C(=O)C(C)(C)COc2cc(NS(=O)(=O)c3ccccc3Br)ccc21 | > 14.4 µg/mL |
| COC(=O)c1c(NC(=O)c2nc3ccccc3s2)sc2c1CC(C)(C)NC2(C)C | > 12.9 µg/mL |
| Cc1c(C(=O)N2CCC(C)CC2)sc2nc(-c3ccc(F)cc3)cn12 | > 10.7 µg/mL |
| CCn1nnc2c(N3CCN(C(c4ccccc4)c4ccccc4)CC3)ncnc21 | > 12 µg/mL |
| Cc1ccnc(Nc2ccc(NCCNS(=O)(=O)c3ccc(F)cc3)nn2)c1 | 12.1 µg/mL |
| CCOc1ccc(-c2ccc(OCCNS(=O)(=O)c3cc(C)c(C)cc3C)nn2)cc1 | > 13.2 µg/mL |
| CC(=O)N1CCc2ccc(NC(=O)c3ccc(F)c(F)c3)cc21 | > 9.49 µg/mL |
| O=C(Nc1ccncc1)c1cccn(Cc2ccc(F)cc2)c1=O | > 9.7 µg/mL |
| O=C(Cc1ccc(Cl)cc1)Nc1cccc(-c2nc3cccnc3s2)c1 | > 11.4 µg/mL |
| Cc1nc2scc(-c3cccc(NC(=O)NC4CCCCC4)c3)n2c(=O)c1C | > 11.9 µg/mL |
| CC(=O)c1cccc(Nc2nc(Nc3ccc(F)c(Cl)c3)nc(N3CCOCC3)n2)c1 | 3.81 µg/mL |
| CCN(CC)CCSc1ccc(-c2ccc(Cl)cc2)nn1 | 0.368 µg/mL |
| COc1ccc(-c2nnc(NC(=O)c3ccn(C)n3)o2)cc1OC | > 9.88 µg/mL |
| O=C(COc1ccc(Cl)cc1Cl)Nc1onc2c1CCC2 | > 9.81 µg/mL |
| O=C(CCS(=O)(=O)c1ccccc1)Nc1nc(-c2cccc3ccccc23)cs1 | 0.126 µg/mL |
| O=S(=O)(c1ccc2ccccc2c1)N1CCN(c2ccc(Nc3cccnc3)nn2)CC1 | > 13.4 µg/mL |
| CC1CCN(C(C)CNC(=O)Nc2ccccc2C(F)(F)F)CC1 (configuration not stated) | 2.22 µg/mL |
| COc1ccc(-c2cn3c(C(=O)Nc4ccc(OC(F)(F)F)cc4)csc3n2)cc1 | 4.41 µg/mL |
| CCn1ccc(C(=O)Nc2ccc3nc(SC)sc3c2)n1 | 0.955 µg/mL |
| Cc1nn(-c2ccccc2)c2[nH]cc(C(=O)Nc3ccc(F)c(Cl)c3)c(=O)c12 | > 11.9 µg/mL |
